Compiled from multiple publications: IC50 readings for human ACC2 (Homo sapiens (Human)).
measure-name: IC50 (nM)

These recorded examples may help you get a feel for the data.
CCNC(=O)C(C)c1ccc(C#Cc2ccc(C(=O)Cn3cnc(C)c3)cc2)cc1 (centres unmarked) :: 22500
COc1c(OCC2CC2(F)F)ccc2c1CCN(Cc1ccc([C@H](C)NC(C)=O)cc1)C2 (some centres unmarked) :: 104
CC(=O)N[C@@H](C)c1ccc(OC2CCN(c3ccc(OCCCF)cc3)C2)cc1 (some centres unmarked) :: 53
CC(=O)NC(C)Cc1ccc(C#Cc2ccc(C(=O)N3CCC3)cc2)cc1 (centres unmarked) :: 2200

a: CCNC(=O)C(C)c1ccc(O[C@@H]2CCN(c3cccc(N(C)C)n3)C2)cc1 (some centres unmarked)
b: CC(=O)NC(C)CCc1ccc(C#Cc2ccc(OC(C)C)cc2)cc1 (centres unmarked)
c: CC(=O)NC(C)Cc1ccc(C#Cc2ccc(Cl)c(C#N)c2)cc1 (centres unmarked)
Arrange by IC50, high to low. API: response body holds the labels in the requested order. c, a, b

a: CC(=O)N[C@@H](C)c1ccc(O[C@@H]2CCN(c3cccc(N4CCC(C)(O)C4)n3)C2)cc1 (some centres unmarked)
b: CC(=O)N[C@@H](C)Cc1ccc(C#Cc2ccc(OC(C)C)cc2)cc1
c: CC(C)Oc1ccc(N2CCC(Oc3ccc([C@H](C)NC(=O)N4CCOCC4)cc3)C2)cc1 (some centres unmarked)
Arrange by IC50, high to low. API: response body holds the labels in the requested order. c, a, b
(c: 1280 nM, a: 455 nM, b: 130 nM)

A: CC(=O)NC(C)Cc1ccc(C#Cc2ccc(C(=O)NCC(F)(F)F)cc2)cc1 (centres unmarked)
B: CC(=O)N[C@@H](C)c1ccc(C#Cc2cnc(NC3CC3)nc2)cc1
C: CC(=O)N[C@@H](C)c1ccc(O[C@@H]2CCN(c3cccc(N(C)CC4CCOC4)n3)C2)cc1 (some centres unmarked)
Arrange by IC50, high to low. API: response body holds the labels in the requested order. A, B, C

P: CC(=O)NC(C)Cc1ccc(C#Cc2cnc(Oc3ccccc3)nc2)cc1 (centres unmarked)
Q: CC(=O)N[C@@H](C)c1ccc(O[C@@H]2CCN(c3ccnc(N(C)CC(F)(F)F)c3F)C2)cc1
Problem: Given the entries P and Q , determine which has the lower reported IC50. Returns: label corresponding to the selected item. Q
(Q: 68 nM, P: 170 nM)

* * *

pIC50: −log10 of the molar value.
Compiled from multiple publications: pIC50 readings for UniProtKB O00763.
measure-name: pIC50

These recorded examples may help you get a feel for the data.
C[C@H](NC(=O)[C@H]1C[C@H](F)C1)c1ccc(CN2Cc3ccc(OCC4CC4(F)F)cc3C(F)C2)cc1 (some centres unmarked) :: 7.11
Cc1cc(OC2CC2)ccc1N1CCC(Oc2ccc([C@H](C)NC(=O)N(C)C)cc2)C1 (some centres unmarked) :: 6.25
CC(=O)N[C@@H](C)c1ccc(C2CN(c3ccc(OCC4CC4(F)F)cn3)C2)cc1 (some centres unmarked) :: 6.22

I: CCOc1ccc(C#Cc2ccc(C(C)C(=O)Nc3nnc(C)o3)cc2)cc1 (centres unmarked)
II: CC(=O)N[C@@H](C)c1ccc(C2CN(c3ccnc(OCC4CC4(F)F)c3F)C2)cc1 (some centres unmarked)
III: CC(=O)N[C@@H](C)c1ccc(O[C@@H]2CCN(c3ccnc(OC4CCC4)c3)C2)cc1
IV: C[C@H](NC(=O)CC#N)c1ccc(CN2CC(=O)c3cc(OCC4CC4(F)F)ccc3C2)cc1 (some centres unmarked)
V: C[C@H](NC(=O)C1CC1)c1ccc(CN2CCc3c(cccc3C(F)(F)F)C2)cc1
Arrange by pIC50, high to low. API: response body holds the labels in the requested order. III, V, IV, I, II
